test system: Aorta; assay: Vasorelaxant activity in rat endothelium-denuded thoracic aortic ring assessed as inhibition of noradrenaline-induced contraction; type: functional, tissue-based
Recorded Endpoint: EC50 (µM)

CCOC(=O)c1c(C)[nH]c(=O)c(C#N)c1-c1cccs1 = 12

(1) CCOC(=O)c1c(C)[nH]c(=O)c(C#N)c1-c1cccc(Cl)c1
(2) CCOC(=O)c1c(C)[nH]c(=O)c(C#N)c1-c1ccncc1
(3) CCOC(=O)c1c(C)[nH]c(=O)c(C#N)c1-c1ccc([N+](=O)[O-])cc1
(4) CCOC(=O)c1c(C)[nH]c(=O)c(C#N)c1-c1ccco1
(5) CCOC(=O)c1c(C)[nH]c(=O)c(C#N)c1-c1ccc([N+](=O)[O-])cc1[N+](=O)[O-]
Ascending by EC50, please. When ranking, write the labels in the order the request describes. 5, 3, 4, 1, 2

Hello, the source for this data is ChEMBL document CHEMBL3085766, in case you need it.
